# System: Escherichia coli IAI1
# experiment-notes: fold change of Cadaverine concentration vs plate DMSO controls (fold change (ratio)); higher = more amine produced, active = hit call of the paper (significant change in both replicates, either direction)
# test-parameters: incubation time: 27 h, anaerobic, 37 °C
Where a name gives a salt, the structure may show the parent alone.
Classify as follows. Reported fold change of Cadaverine concentration greater than or equal to 1: class 1. Reported fold change of Cadaverine concentration below: class 0.

In plain terms: is recorded fold change of Cadaverine concentration at least 1 for CNCCC=C1c2ccccc2CCc2ccccc21 [Nortriptyline hydrochloride] (20 µM) ?
class 1

In plain terms: is recorded fold change of Cadaverine concentration at least 1 for CCOC(=O)C1=C(C)NC(C)=C(C(=O)OC)C1c1cccc(Cl)c1Cl (centres undefined) [Felodipine] (20 µM) ?
class 0

###

# System: Escherichia coli IAI1
# experiment-notes: fold change of Cadaverine concentration vs plate DMSO controls (fold change (ratio)); higher = more amine produced, active = hit call of the paper (significant change in both replicates, either direction)
# test-parameters: incubation time: 27 h, anaerobic, 37 °C
Structures can show the parent of a compound that is named as a salt.
quantity: fold change of Cadaverine concentration
Give the figure by itself; no unit, no explanation.

For c1ccc2cc3ccccc3cc2c1 [Anthracene] (20 µM) , what is its reported fold change of Cadaverine concentration?
0.976

For CN(C)CCCSC(=N)N [Dimaprit dihydrochloride] (20 µM) , what is its reported fold change of Cadaverine concentration?
0.998

For CC(C)NCC(O)c1ccc(NS(C)(=O)=O)cc1 (stereo not drawn) [Sotalol hydrochloride] (20 µM) , what is its reported fold change of Cadaverine concentration?
1.08

For c1ccc2[nH]c(-c3cscn3)nc2c1 [Tiabendazole] (20 µM) , what is its reported fold change of Cadaverine concentration?
1.04

For CS(=O)(=O)c1ccc([C@@H](O)[C@@H](CO)NC(=O)C(Cl)Cl)cc1 [Thiamphenicol] (20 µM) , what is its reported fold change of Cadaverine concentration?
1.17

For CC(=O)O[C@]1(C(C)=O)CC[C@H]2[C@@H]3C=C(Cl)C4=CC(=O)CC[C@]4(C)[C@H]3CC[C@@]21C [Chlormadinone acetate] (20 µM) , what is its reported fold change of Cadaverine concentration?
1.02

For C[C@]12C=CC(=O)C=C1CC[C@H]1[C@@H]3C[C@@H](O)[C@](O)(C(=O)CO)[C@@]3(C)C[C@H](O)[C@@]12F [Triamcinolone] (20 µM) , what is its reported fold change of Cadaverine concentration?
0.994

For COc1ccc([C@@H]2CC(=O)c3c(O)cc(O[C@@H]4O[C@H](CO[C@@H]5O[C@@H](C)[C@H](O)[C@@H](O)[C@H]5O)[C@@H](O)[C@H](O)[C@H]4O)cc3O2)cc1O [Hesperidin] (20 µM) , what is its reported fold change of Cadaverine concentration?
0.986

For CN[C@@H]1[C@@H](O[C@H]2O[C@H](CO)[C@@H](N)[C@H](O)[C@H]2O)OC2C[C@@H](N)[C@@H](O[C@H]3[C@H](O)[C@@H](O)[C@H](N)C[C@@H]3N)OC2[C@@H]1O (stereo partly drawn) [Apramycin] (20 µM) , what is its reported fold change of Cadaverine concentration?
1

For COc1ccccc1OCC(O)CO (stereo not drawn) [Guaifenesin] (20 µM) , what is its reported fold change of Cadaverine concentration?
0.991

For CCN(CC)C(=O)C1(c2ccccc2)CC1CN (stereo not drawn) [Milnacipran hydrochloride] (20 µM) , what is its reported fold change of Cadaverine concentration?
0.895

For NC(=O)C(c1ccccc1)(c1ccccc1)[C@@H]1CCN(CCc2ccc3c(c2)CCO3)C1 [Darifenacin hydrobromide] (20 µM) , what is its reported fold change of Cadaverine concentration?
0.961

For CCC(=O)O[C@@H]1CC(=O)O[C@H](C)C/C=C/C=C/[C@H](O)[C@H](C)C[C@H](CC=O)[C@H](O[C@@H]2O[C@H](C)[C@@H](O[C@H]3C[C@@](C)(O)[C@@H](OC(=O)CC)[C@H](C)O3)[C@H](N(C)C)[C@H]2O)[C@H]1OC [Midecamycin] (20 µM) , what is its reported fold change of Cadaverine concentration?
1.05

###

# Test system: Klebsiella aerogenes DSM 30053
# experiment-notes: growth (OD595) fold change vs plate DMSO controls (fold change (ratio)); higher = more growth
# test-parameters: incubation time: 27 h, anaerobic, 37 °C
Counter-ions that a name gives are not always drawn.
Task for the reader: assign each of the following compounds its reported growth.
Give the figure by itself; no unit, no explanation.

For CCOC(=O)[C@H](CCc1ccccc1)N[C@H]1CCc2ccccc2N(CC(=O)O)C1=O [Benazepril hydrochloride] (20 µM) , what is its reported growth?
1

For CN1CCC(=C2c3ccccc3C=Cc3ccccc32)CC1 [Cyproheptadine hydrochloride] (20 µM) , what is its reported growth?
0.98

For CC(=O)Nc1c(I)c(C(=O)N[C@H]2C(O)O[C@H](CO)[C@@H](O)[C@@H]2O)c(I)c(N(C)C(C)=O)c1I (stereo not given in full) [Metrizamide] (20 µM) , what is its reported growth?
1.04

For CCN(CC)CCNC(=O)COc1ccc(OC)cc1 [Mefexamide hydrochloride] (20 µM) , what is its reported growth?
1.08

For O=C(Oc1ccccc1)n1c(C(F)(F)F)nc2cc(Cl)c(Cl)cc21 (20 µM) , what is its reported growth?
0.714

For CC(=O)OCC(=O)[C@@]1(O)CC[C@H]2[C@@H]3CCC4=CC(=O)C=C[C@]4(C)[C@@]3(F)[C@@H](O)C[C@@]21C [Isoflupredone acetate] (20 µM) , what is its reported growth?
0.983

For CO/N=C(\C(=O)N[C@@H]1C(=O)N2C(C(=O)O)=C(C[N+]3(C)CCCC3)CS[C@H]12)c1csc(N)n1 [Cefepime hydrochloride] (20 µM) , what is its reported growth?
0.484

For Nc1cccc2c1C(=O)N(C1CCC(=O)NC1=O)C2=O (stereo not given) [Pomalidomide] (20 µM) , what is its reported growth?
1.02

For O=C(O)CNC(=O)C(CS)Cc1ccccc1 (stereo not given) [Thiorphan] (20 µM) , what is its reported growth?
1.05

For CN(C)CCN(Cc1ccc(Cl)cc1)c1ccccn1 [Chloropyramine hydrochloride] (20 µM) , what is its reported growth?
0.92

For CC(C)(Sc1cc(C(C)(C)C)c(O)c(C(C)(C)C)c1)Sc1cc(C(C)(C)C)c(O)c(C(C)(C)C)c1 [Probucol] (20 µM) , what is its reported growth?
1.03

For CC(C)[C@H](N)C(=O)OCCOCn1cnc2c(=O)nc(N)[nH]c21 [Valacyclovir hydrochloride] (20 µM) , what is its reported growth?
0.98

For CC(=O)OC[C@H]1O[C@@H](n2ncc(=O)[nH]c2=O)[C@H](OC(C)=O)[C@@H]1OC(C)=O [Azaribine] (20 µM) , what is its reported growth?
1

For COC(=O)Nc1nc2cc([S+]([O-])c3ccccc3)ccc2[nH]1 (stereo not given) [Oxfendazole] (20 µM) , what is its reported growth?
1.01

For CN1C(=O)OC(C)(C)C1=O [Trimethadione] (20 µM) , what is its reported growth?
1.01

###

# Test system: Ruminococcus gnavus DSM 108212
# experiment-notes: fold change of 2-Phenylethylamine concentration vs plate DMSO controls (fold change (ratio)); higher = more amine produced, active = hit call of the paper (significant change in both replicates, either direction)
# test-parameters: incubation time: 27 h, anaerobic, 37 °C
Counter-ions that a name gives are not always drawn.
quantity: fold change of 2-Phenylethylamine concentration
Give the figure by itself; no unit, no explanation.

What is its fold change of 2-Phenylethylamine concentration for Ruminococcus gnavus DSM 108212? Entry: Nc1ccccc1S(N)(=O)=O [o-Sulfanilamide] (20 µM)
0.905

What is its fold change of 2-Phenylethylamine concentration for Ruminococcus gnavus DSM 108212? Entry: CCCC(=O)Nc1ccc(OCC(O)CNC(C)C)c(C(C)=O)c1 (stereo not given) [Acebutolol hydrochloride] (20 µM)
0.985

What is its fold change of 2-Phenylethylamine concentration for Ruminococcus gnavus DSM 108212? Entry: Cn1c(=O)c2c(ncn2CC2OCCO2)n(C)c1=O [Doxofylline] (20 µM)
1.1

What is its fold change of 2-Phenylethylamine concentration for Ruminococcus gnavus DSM 108212? Entry: c1cc2ccc3ccc4ccc5cccc6c(c1)c2c3c4c56 [Benzo-[g,h,i]perylene] (20 µM)
0.88

What is its fold change of 2-Phenylethylamine concentration for Ruminococcus gnavus DSM 108212? Entry: CC(=O)NS(=O)(=O)c1ccc(N)cc1 [Sulfacetamide sodic hydrate] (20 µM)
1.08

What is its fold change of 2-Phenylethylamine concentration for Ruminococcus gnavus DSM 108212? Entry: CN(C)CCN(Cc1cccs1)c1ccccn1 [Methapyrilene hydrochloride] (20 µM)
1.08

What is its fold change of 2-Phenylethylamine concentration for Ruminococcus gnavus DSM 108212? Entry: Cn1c(=O)c2c(ncn2CC(O)CO)n(C)c1=O (stereo not given) [Diprophylline] (20 µM)
0.99

What is its fold change of 2-Phenylethylamine concentration for Ruminococcus gnavus DSM 108212? Entry: CCCc1nn(C)c2c(=O)[nH]c(-c3cc(S(=O)(=O)N4CCN(C)CC4)ccc3OCC)nc12 [Sildenafil] (20 µM)
1.24

What is its fold change of 2-Phenylethylamine concentration for Ruminococcus gnavus DSM 108212? Entry: CCCCOc1ccc(C(=O)CCN2CCCCC2)cc1 [Dyclonine hydrochloride] (20 µM)
0.936

What is its fold change of 2-Phenylethylamine concentration for Ruminococcus gnavus DSM 108212? Entry: Cc1ccsc1/C=C/C1=NCCCN1C [Morantel tartrate] (20 µM)
0.957

What is its fold change of 2-Phenylethylamine concentration for Ruminococcus gnavus DSM 108212? Entry: CC[C@H](C)[C@H](N)C1=N[C@H](C(=O)N[C@@H](CC(C)C)C(=O)N[C@H](CCC(=O)O)C(=O)N[C@H](C(=O)N[C@H]2CCCCNC(=O)[C@H](CC(N)=O)NC(=O)[C@@H](CC(=O)O)NC(=O)[C@H](Cc3cnc[nH]3)NC(=O)[C@@H](Cc3ccccc3)NC(=O)[C@H]([C@@H](C)CC)NC(=O)[C@@H](CCCN)NC2=O)[C@@H](C)CC)CS1 [Bacitracin] (20 µM)
0.0535

What is its fold change of 2-Phenylethylamine concentration for Ruminococcus gnavus DSM 108212? Entry: NC(=O)NC1NC(=O)NC1=O (stereo not given) [Allantoin] (20 µM)
1.05

What is its fold change of 2-Phenylethylamine concentration for Ruminococcus gnavus DSM 108212? Entry: CCC(=O)c1ccc(O)cc1 [Paroxypropione] (20 µM)
0.952

What is its fold change of 2-Phenylethylamine concentration for Ruminococcus gnavus DSM 108212? Entry: COc1ccc(NS(=O)(=O)c2ccc(N)cc2)nn1 [Sulfamethoxypyridazine] (20 µM)
1.44

What is its fold change of 2-Phenylethylamine concentration for Ruminococcus gnavus DSM 108212? Entry: Cc1cc(C)nc(NS(=O)(=O)c2ccc(N)cc2)n1 [Sulfamethazine sodium salt] (20 µM)
1.07

What is its fold change of 2-Phenylethylamine concentration for Ruminococcus gnavus DSM 108212? Entry: C#C[C@]1(O)CC[C@H]2[C@@H]3CCC4=C(CCC(=O)C4)[C@H]3CC[C@@]21C [Norethynodrel] (20 µM)
0.989

What is its fold change of 2-Phenylethylamine concentration for Ruminococcus gnavus DSM 108212? Entry: C=C(CC)C(=O)c1ccc(OCC(=O)O)c(Cl)c1Cl [Ethacrynic acid] (20 µM)
0.917

What is its fold change of 2-Phenylethylamine concentration for Ruminococcus gnavus DSM 108212? Entry: C=C[C@H]1CN2CC[C@H]1C[C@@H]2[C@@H](O)c1ccnc2ccc(OC)cc12 [Quinidine hydrochloride monohydrate] (20 µM)
1

What is its fold change of 2-Phenylethylamine concentration for Ruminococcus gnavus DSM 108212? Entry: C[N+](C)(C)CCOC(N)=O [Carbachol chloride] (20 µM)
1.11

What is its fold change of 2-Phenylethylamine concentration for Ruminococcus gnavus DSM 108212? Entry: Nc1nc(CC(=O)Nc2ccc(CCNC[C@H](O)c3ccccc3)cc2)cs1 [Mirabegron] (20 µM)
1.05

What is its fold change of 2-Phenylethylamine concentration for Ruminococcus gnavus DSM 108212? Entry: O=C(CCCl)NCc1ccccc1 [Beclamide] (20 µM)
1.03

What is its fold change of 2-Phenylethylamine concentration for Ruminococcus gnavus DSM 108212? Entry: O=C(Oc1ccccc1)c1ccccc1O [Phenyl salicylate] (20 µM)
1.13

What is its fold change of 2-Phenylethylamine concentration for Ruminococcus gnavus DSM 108212? Entry: CN1[C@@H]2CC[C@H]1CC(OC(=O)C(O)c1ccccc1)C2 (mixture of isomers) [(R,S) Homatropine hydrobromide] (20 µM)
1.01

What is its fold change of 2-Phenylethylamine concentration for Ruminococcus gnavus DSM 108212? Entry: Cc1ccc(Cl)c(Nc2ccccc2C(=O)O)c1Cl [Meclofenamic acid sodium salt monohydrate] (20 µM)
0.911

What is its fold change of 2-Phenylethylamine concentration for Ruminococcus gnavus DSM 108212? Entry: CN(C)CCc1c[nH]c2ccc(Cn3cncn3)cc12 [Rizatriptan benzoate] (20 µM)
0.989

What is its fold change of 2-Phenylethylamine concentration for Ruminococcus gnavus DSM 108212? Entry: Cc1c(Cl)cccc1Nc1ncccc1C(=O)O [Clonixin lysinate] (20 µM)
1.01

What is its fold change of 2-Phenylethylamine concentration for Ruminococcus gnavus DSM 108212? Entry: CC[C@H](C)[C@H](NC(=O)[C@H](Cc1ccc(O)cc1)NC(=O)[C@@H](NC(=O)[C@H](CCCN=C(N)N)NC(=O)[C@@H](N)CC(=O)O)C(C)C)C(=O)N[C@@H](Cc1cnc[nH]1)C(=O)N1CCC[C@H]1C(=O)N[C@@H](Cc1ccccc1)C(=O)O [Angiotensin II (Human) Trifluoroacetic acid salt] (20 µM)
1.14

What is its fold change of 2-Phenylethylamine concentration for Ruminococcus gnavus DSM 108212? Entry: O=C(O)CCNC(=O)c1ccccc1 [Betamipron] (20 µM)
0.956

What is its fold change of 2-Phenylethylamine concentration for Ruminococcus gnavus DSM 108212? Entry: Cc1onc(-c2ccccc2)c1C(=O)N[C@@H]1C(=O)N2[C@@H]1SC(C)(C)[C@@H]2C(=O)O [Oxacillin sodium] (20 µM)
0.0469

What is its fold change of 2-Phenylethylamine concentration for Ruminococcus gnavus DSM 108212? Entry: CN1CCC(=C2c3ccccc3CCc3cccnc32)CC1 [Azatadine maleate] (20 µM)
1.03
